B1: Azoarcus group I ribozyme (parent)
chain: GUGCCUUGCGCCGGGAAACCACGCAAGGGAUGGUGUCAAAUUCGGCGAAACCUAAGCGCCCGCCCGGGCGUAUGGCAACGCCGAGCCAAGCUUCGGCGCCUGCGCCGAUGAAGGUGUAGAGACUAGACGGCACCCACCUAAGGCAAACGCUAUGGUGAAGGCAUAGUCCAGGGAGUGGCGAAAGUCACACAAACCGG

Variants of: B1
protocol_summary: reverse-splicing fitness (ratio to wild type); higher = more active; in vitro selection; Mg2+ level not given
Each entry below carries its reported reverse-splicing fitness.

{"mutation_string": "C82U A111U A120G A145U C150G C169A U176A", "reverse-splicing fitness": 0.00889}
{"mutation_string": "A120U A145G C150G U176A", "reverse-splicing fitness": 0.084}
{"mutation_string": "C82G A145U C150A C169G U176C", "reverse-splicing fitness": 0.0129}
{"mutation_string": "C82A A111U A120U A145G C150G U176C", "reverse-splicing fitness": 0.00894}
{"mutation_string": "C82G A111G A120C C150G C169U", "reverse-splicing fitness": 0.0104}
{"mutation_string": "C82G A111U A120C A145C C150A U176G", "reverse-splicing fitness": 0.0066}
{"mutation_string": "A111C A120G A145C C150U C169G", "reverse-splicing fitness": 0.0492}
{"mutation_string": "C82U A120U C150U C169A U176C", "reverse-splicing fitness": 0.00192}
{"mutation_string": "C82G A120U A145U C150G C169U", "reverse-splicing fitness": 0.00283}
{"mutation_string": "C82U A111C A120G A145G C150A C169G U176A", "reverse-splicing fitness": 0.0146}
{"mutation_string": "A111U A120C A145G C150G", "reverse-splicing fitness": 0.0716}
{"mutation_string": "C82A A120G A145G C150A", "reverse-splicing fitness": 0.0101}
{"mutation_string": "A120G A145C C150A C169G U176A", "reverse-splicing fitness": 0.0447}
{"mutation_string": "C82A A111U A145C C169G U176G", "reverse-splicing fitness": 0.00654}
{"mutation_string": "C82G A145C C150A C169G U176G", "reverse-splicing fitness": 0.00624}
{"mutation_string": "C82A A145C C150A C169A U176G", "reverse-splicing fitness": 0.00593}
